# assay: Identification of proteins required for the processing of the EWS-FLI1 nascent transcript;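 note: robust z of luciferase light less the median z of siRNAs with the same seed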
# runConditions: TC32 Ewing sarcoma NR0B1-luc vs CMV-luc (EWS-FLI1 target promoter against control promoter), 48 h; screened at 20 nM (by protocol)
# Experimental: Ewing sarcoma (ES) cells depend on the EWS-FLI1 fusion transcription factor for cell survival. […] Luciferase activity was assessed 48 hours post siRNA-transfection. Twenty microl of serum-free media containing Lipofectamine RNAiMax (0.05 microl) was added to wells containing siRNA (0.8 pmol). […] Luciferase expression was measured using OneGlo (Promega, Madison, WI). […]
The full ranking holds about 59,000 sequences; the median of the read-out is about -0.00055, and the lowest 2% start at about -2. This is one part of a sample in which the lowest values are shown more often than they occur.
Binary label based on seed-corrected z-score with cut-off -0.3: below gives class 1, not below gives class 0.

AUUGCAAAAGUAGAUUUAC against RPL26P30 ... class 0
UUAGCUGCAAUUGCCUUCU against ZWINT ... class 1
AUAGGUACUACAUAUGAGC against DSC2 ... class 1

Field: below-cutoff. Rule: recorded seed-corrected z-score strictly less than -0.3. Subject: UAGAUUUUAAACAUCCUUG against FAS
class 0

Determine if UGUAGCUGAAGAAUAUUCC against ZBTB24 shows seed-corrected z-score strictly lower than -0.3.
class 1
